src = the supplement of paper PMC10567573

B1: CPXM2 (parent)
chain: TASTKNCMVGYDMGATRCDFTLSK

Variants of: B1
measurement_description: protein stability index of a GFP-peptide fusion (GPS, HEK-293T) (PSI 1-6); higher = more stable;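 note: lentivirally expressed fusions sorted by FACS into six bins by GFP to DsRed ratio, PSI derived from sequencing read proportions per bin multiplied by bin number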
conditions: c terminus: a fixed tail appended
Lab note: compare protein stability index against 3. Equal or greater, write y. Smaller, write n.

[Q] Quick check, protein stability index >= 3? "TASTKNCMVGYDMGATRADFTLSK"
[A] n

[Q] Quick check, protein stability index >= 3? "TASTKDCMVGYDMGATRCDFTLSK"
[A] y

[Q] Quick check, protein stability index >= 3? "TASTKNCMVPYDMGATRCDFTLSK"
[A] n

[Q] Quick check, protein stability index >= 3? "TVSTKNCMVGYDMGATRCDFTLSK"
[A] n

[Q] Quick check, protein stability index >= 3? "TASTKNCMVGYDMGATRCDFKLSK"
[A] y

[Q] Quick check, protein stability index >= 3? "TASTKNIMVGYDMGATRCDFTLSK"
[A] y

[Q] Quick check, protein stability index >= 3? "TASTKNLMVGYDMGATRCDFTLSK"
[A] y

[Q] Quick check, protein stability index >= 3? "TASTKNCMVGYMMGATRCDFTLSK"
[A] n

[Q] Quick check, protein stability index >= 3? "TASTKNCMVGYDMGATRCDFTYSK"
[A] n

[Q] Quick check, protein stability index >= 3? "TASTKNCEVGYDMGATRCDFTLSK"
[A] y

[Q] Quick check, protein stability index >= 3? "TASTKNCMVGYDMGITRCDFTLSK"
[A] n

[Q] Quick check, protein stability index >= 3? "TALTKNCMVGYDMGATRCDFTLSK"
[A] n

[Q] Quick check, protein stability index >= 3? "TASTKNCMVGYDMGATRCDLTLSK"
[A] n

[Q] Quick check, protein stability index >= 3? "TASTKNCMVGYDMGATRCDFTLLK"
[A] n

[Q] Quick check, protein stability index >= 3? "TASTKNCMVGYHMGATRCDFTLSK"
[A] n

[Q] Quick check, protein stability index >= 3? "TASTKNCMVGYDMGYTRCDFTLSK"
[A] n

[Q] Quick check, protein stability index >= 3? "TASTKECMVGYDMGATRCDFTLSK"
[A] y

[Q] Quick check, protein stability index >= 3? "TASTKNCMVGYDMGATRCHFTLSK"
[A] n

[Q] Quick check, protein stability index >= 3? "TASTKNCMVGYDMGATNCDFTLSK"
[A] y
